The reader will find reported activity change values listed item by item below.
Experiment: qHTS for Inhibitors of Inflammasome Signaling: IL-1-beta AlphaLISA Primary Screen; further: on the % scale 0 is the no-effect control and ±100 the full control effect
Conditions: THP-1 LPS/ATP IL-1B secretion, 16 h; at 57.5 µM, hits give low values
Among all 360,000 compounds or so, about 17,000 (4.7%) were called active. Inconclusive results (about 5%) are left out. This is one part of a sample in which actives are shown more often than they occur.
measured quantity: activity change (%)

[[record]]
molecule = "COc1ccc(CCNC(=O)c2cnc(Cl)c(Cl)c2)cc1"
units_text = "%"
observed_measurement = -107

[[record]]
molecule = "COc1ccc([C@H]2CC(=O)C[C@@H](CCn3cc(CC4CCCC4)nn3)O2)cc1"
units_text = "%"
observed_measurement = 10.9

[[record]]
molecule = "Cc1ccc(NC(=O)[C@H](Cc2ccccc2)NC(=O)CC[C@H]2O[C@@H](n3ccc(=O)[nH]c3=O)[C@H](O)[C@@H]2O)cc1C"
units_text = "%"
observed_measurement = 6.2

[[record]]
molecule = "Cc1ccc(-c2ccnc3nc(Sc4ncc(C(F)(F)F)cc4Cl)nn23)cc1"
units_text = "%"
observed_measurement = -65.2

[[record]]
molecule = "CC(=O)/C(=N\\Nc1ccc(Cl)cc1Cl)Sc1cccc2cccnc12"
units_text = "%"
observed_measurement = -103

[[record]]
molecule = "Cc1cc2cc3n(c2nn1)N=C(Cl)CC3"
units_text = "%"
observed_measurement = -81.1

[[record]]
molecule = "COc1ccc(NC(=O)N(C)C[C@H]2Oc3ncc(C#C[C@@H](C)O)cc3C(=O)N([C@H](C)CO)C[C@H]2C)cc1"
units_text = "%"
observed_measurement = -13.1

[[record]]
molecule = "Cc1ccc(-c2cnc(C(O)c3cc(Cl)cc(Cl)c3)[nH]2)cc1 (stereo not given)"
units_text = "%"
observed_measurement = 6.64

[[record]]
molecule = "C/C(=N/Nc1ccc(Cl)cc1)c1cnnc(-c2ccccc2)n1"
units_text = "%"
observed_measurement = 58.2

[[record]]
molecule = "Cn1cc(CCC(=O)NCc2ccc3c(c2)OCO3)c2ccccc21"
units_text = "%"
observed_measurement = 0

[[record]]
molecule = "C[C@H]1CN([C@@H](C)CO)C(=O)CCCn2cc(nn2)CO[C@@H]1CN(C)S(=O)(=O)c1ccccc1C#N"
units_text = "%"
observed_measurement = 4.98

[[record]]
molecule = "Cn1c(CCN2CCN(c3ccccn3)CC2)nc2cc(NS(=O)(=O)c3ccc(F)cc3)ccc21"
units_text = "%"
observed_measurement = -12.9

[[record]]
molecule = "Cc1cc2c3ccccc3[nH]c(=O)n2n1"
units_text = "%"
observed_measurement = -25.1

[[record]]
molecule = "CC(C)NC(=O)N1Cc2cc(C(=O)NCC(F)(F)F)nc(-c3cccc(-c4cc5ccccc5o4)c3)c2[C@@H]1CCO"
units_text = "%"
observed_measurement = -22.8

[[record]]
molecule = "Cc1nn(-c2ccccn2)c2c1C(c1ccncc1)C1=C(CC(C)(C)CC1=O)N2 (stereo not given)"
units_text = "%"
observed_measurement = -7.64

[[record]]
molecule = "NS(=O)(=O)c1ccc(CCNS(=O)(=O)c2cccc3cccnc23)cc1"
units_text = "%"
observed_measurement = 7.82

[[record]]
molecule = "CCN(C(=O)CSc1nnc2ccccn12)C1CCS(=O)(=O)C1 (stereo not given)"
units_text = "%"
observed_measurement = -2.9

[[record]]
molecule = "CCCNC(=O)C1(C)CCN(C(=O)c2ccccc2OC(F)(F)F)C1 (stereo not given)"
units_text = "%"
observed_measurement = 15.8

[[record]]
molecule = "CCCc1ccc(C(O)c2ncc(-c3cccc(OC)c3)[nH]2)cc1 (stereo not given)"
units_text = "%"
observed_measurement = 26

[[record]]
molecule = "O=C(O)CSc1nccc2ccccc12"
units_text = "%"
observed_measurement = -61.2

